Ref: patent US20240018146A1

test system: HeLa MKYP cells; test: Human mitophagy assay (HeLa mKeima assay, FACS); type: cell-based; details: Homo sapiens, HeLa; read-out: Mitophagy induction EC50
Decide using EC50 alone. Strictly below 3000 nM: label 1. Equal to or above 3000 nM: label 0.

INSERT INTO assay_data (molecule, assigned_label) VALUES
  ('C[C@@H]1CN([C@H]2COc3cc(F)ccc3[C@@H]2Nc2ncnc3[nH]c(C4CC4)cc23)C[C@H](C)O1 (single isomer, unassigned) [EP-0040842]', 'label 1'),
  ('C[C@@]12COC[C@]1(C)CN(C1COc3ccccc3C1Nc1ncnc3[nH]c(C(F)(F)F)cc13)C2 (some centres unmarked)', 'label 1'),
  ('FC(F)(F)c1cc2c(N[C@H]3c4ccccc4OC[C@H]3N3CCOCC3)ncnc2[nH]1', 'label 0'),
  ('FC(F)(F)c1cc2c(NC3c4ccccc4OCC3N3C[C@H]4COC[C@@H]4C3)ncnc2[nH]1 (some centres unmarked)', 'label 1'),
  ('c1ccc2c(c1)OC[C@H](N1CCOCC1)[C@H]2Nc1ncnc2[nH]c(C3CC3)cc12 [EP-0040080]', 'label 1'),
  ('C[C@@H]1CN([C@H]2COc3ccccc3[C@@H]2Nc2ncnc3[nH]c(C4CC4)cc23)C[C@H](C)O1 [EP-0040944]', 'label 1'),
  ('c1ccc2c(c1)CC[C@H](N1C[C@H]3COC[C@H]3C1)[C@H]2Nc1ncnc2[nH]c(C3CC3)cc12 [EP-0039713]', 'label 1'),
  ('Fc1cccc2c1CC[C@H](N1C[C@H]3COC[C@H]3C1)[C@H]2Nc1ncnc2[nH]c(C3CC3)cc12 (single isomer, unassigned)', 'label 1'),
  ('FC(F)(F)c1cc2c(N[C@@H]3c4ccccc4OC[C@H]3N3CCOCC3)ncnc2[nH]1', 'label 1'),
  ('C[C@@H]1CN([C@@H]2CCc3ccccc3[C@H]2Nc2ncnc3[nH]c(C(F)(F)F)cc23)C[C@H](C)O1 (single isomer, unassigned)', 'label 0'),
  ('C[C@@]12COC[C@]1(C)CN(C1CCc3ccccc3C1Nc1ncnc3[nH]c(C4CC4)cc13)C2 (some centres unmarked)', 'label 1'),
  ('OC1CC2(C1)CN([C@H]1COc3ccccc3[C@@H]1Nc1ncnc3[nH]c(C(F)(F)F)cc13)C2 (single isomer, unassigned)', 'label 0'),
  ('c1ccc2c(c1)CC[C@H](N1CCOCC1)[C@H]2Nc1ncnc2[nH]c(C3CC3)cc12 (single isomer, unassigned) [EP-0040108]', 'label 1'),
  ('C[C@@H]1CN([C@@H]2CCc3ccccc3[C@H]2Nc2ncnc3[nH]c(C(F)(F)F)cc23)CCO1 (single isomer, unassigned)', 'label 0'),
  ('FC(F)(F)c1cc2c(N[C@H]3c4ccccc4CC[C@@H]3OCC3CCOCC3)ncnc2[nH]1 (single isomer, unassigned)', 'label 0'),
  ('c1ccc2c(c1)CC[C@H](C1CCOCC1)[C@@H]2Nc1ncnc2[nH]c(C3CC3)cc12', 'label 0'),
  ('OC[C@H]1CCN(C2CCc3ccccc3C2Nc2ncnc3[nH]c(C(F)(F)F)cc23)C1 (mixture of isomers)', 'label 1'),
  ('Fc1ccc2c(c1)CC[C@@H](N1C[C@@H]3COC[C@H]3C1)[C@@H]2Nc1ncnc2[nH]c(C(F)(F)F)cc12', 'label 0'),
  ('C[C@@H]1CN([C@H]2COc3cc(F)ccc3[C@@H]2Nc2ncnc3[nH]c(C(F)(F)F)cc23)C[C@H](C)O1 [EP-0040946]', 'label 0'),
  ('C[C@@H]1CN([C@H]2COc3ccccc3[C@@H]2Nc2ncnc3[nH]c(C(F)(F)F)cc23)C[C@H](C)O1 (single isomer, unassigned) [EP-0040749]', 'label 1'),
  ('FC(F)(F)c1cc2c(N[C@H]3c4ccccc4OC[C@@H]3C3CCCOC3)ncnc2[nH]1 (single isomer, unassigned)', 'label 0'),
  ('CO[C@@H]1CCN([C@H]2COc3ccccc3[C@@H]2Nc2ncnc3[nH]c(C(F)(F)F)cc23)C1', 'label 1'),
  ('CN(c1ncnc2[nH]c(C(F)(F)F)cc12)C1c2ccccc2CCC1N1C[C@H]2COC[C@H]2C1 (some centres unmarked)', 'label 0'),
  ('C[C@@H]1CN([C@@H]2CCc3ccccc3[C@H]2Nc2ncnc3[nH]c(C4CC4)cc23)C[C@H](C)O1 (single isomer, unassigned)', 'label 0'),
  ('FC(F)(F)c1cc2c(N[C@H]3c4ccc(Br)cc4OC[C@@H]3N3CCOCC3)ncnc2[nH]1 (single isomer, unassigned)', 'label 0'),
  ('CC(=O)N1CCN(C2COc3ccccc3C2Nc2ncnc3[nH]c(C4CC4)cc23)CC1 (racemic)', 'label 1');
